# System: Staphylococcus epidermidis
# assay.overview: Antibacterial activity was determined against Staphylococcus epidermidis ATCC 12228 (Gram-positive)
# Type: functional
reported.endpoint: MIC (µg/mL)
# value in µg/mL; strip the unit string

smi | readout.units | MIC
C[n+]1ccc(SCC2=C(C(=O)O)N3C(=O)[C@@H](NC(=O)/C(=N\OC4CCCC4)c4csc(N)n4)[C@H]3CO2)cc1.O=S(=O)([O-])O | µg/mL | 0.05
CCC(=O)C[n+]1ccc(SCC2=C(C(=O)O)N3C(=O)[C@@H](NC(=O)/C(=N\OC4CCCC4)c4csc(N)n4)[C@H]3CO2)cc1.O=S(=O)([O-])O | µg/mL | 0.2
NC(=O)C[n+]1ccc(SCC2=C(C(=O)O)N3C(=O)[C@@H](NC(=O)/C(=N\OC4CCCC4)c4csc(N)n4)[C@H]3CO2)cc1.O=S(=O)([O-])O | µg/mL | 0.05
CN[C@H](CC(C)C)C(=O)N[C@H]1C(=O)N[C@@H](CC(N)=O)C(=O)N[C@H]2C(=O)N[C@H]3C(=O)N[C@H](C(=O)N[C@H](C(=O)O)c4cc(O)cc(O)c4-c4cc3ccc4O)[C@H](O)c3ccc(c(Cl)c3)Oc3cc2cc(c3O[C@@H]2O[C@H](CO)[C@@H](O)[C@H](O)[C@H]2O[C@H]2C[C@](C)(N)[C@H](O)[C@H](C)O2)Oc2ccc(cc2Cl)[C@H]1O | µg/mL | 3.13

Data request: Given the compound `CC(=O)C[n+]1ccc(SCC2=C(C(=O)O)N3C(=O)[C@@H](NC(=O)/C(=N\OC4CCCC4)c4csc(N)n4)[C@H]3CO2)cc1.O=S(=O)([O-])O` , write its reported MIC.
Data returned: 0.2

Data request: Given the compound `CC(C)(C)C(=O)C[n+]1ccc(SCC2=C(C(=O)O)N3C(=O)[C@@H](NC(=O)/C(=N\OC4CCCC4)c4csc(N)n4)[C@H]3CO2)cc1.O=S(=O)([O-])O` , write its reported MIC.
Data returned: 0.39
